Reported %Inh values follow for various compounds
- Tested on: IKK-epsilon;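 also: KINOMEscan kinase panel screen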
- Construct: gene IKBKE
- statedConditions: concentration: 1 μM, replicates: in singlicate; n = 1
# output: bare number, implied unit %

compound: CCn1c(-c2c(N)noc2C)nc2cnccc21 [SB-737856]
tgt: IKK-epsilon
reportedValue: 0
--
compound: CN1c2ccc(-c3ccc(C(N)=O)cc3)cc2-c2[nH]ncc2S1(=O)=O
tgt: IKK-epsilon
reportedValue: 0

Fill in: %Inh of Cc1ccc(NC(=O)Nc2ccc(Cl)cc2)cc1-c1ccc(C(=O)Nc2ccncc2)cc1 [GSK1398472] is ___
5

Fill in: %Inh of c1ccc(-c2ccnc3[nH]ccc23)cc1 [SB-693578] is ___
0

Fill in: %Inh of CC(=O)c1cccc(NC(=O)NC2CCN(c3ccnc(Nc4ccc(F)cc4)n3)C2)c1 (stereo not shown) [GSK1379710] is ___
33

Fill in: %Inh of `COc1ccc(CSc2nnc(-c3ccc4nccn4c3)o2)cc1C(F)(F)F` is ___
11

Fill in: %Inh of CS(=O)(=O)Cc1ccc(Nc2nccc(-c3c(-c4cccc(NC(=O)C5CCCCC5)c4)nn4ncccc34)n2)cc1 [GSK350559] is ___
32

Fill in: %Inh of COc1ccc2cc(-c3nc(-c4ccccc4C(C)C)[nH]c3-c3ccncc3)ccc2c1 [SB-660566] is ___
14

Fill in: %Inh of Nc1nccc(-c2c(-c3ccc(F)cc3)ncn2C2CCN(Cc3ccccc3)CC2)n1 [SB-219980] is ___
5

Fill in: %Inh of O=C1NC(=O)C(c2ccc(Cl)cc2)=C1Nc1ccc(O)cc1 [SB-340867] is ___
0

Fill in: %Inh of Cc1c(Cn2c(C)c(C)n3c(=O)cc(N4CCOCC4)nc23)cccc1C(F)(F)F [GSK2328680] is ___
0

Fill in: %Inh of Cc1c(Cn2c3ccccc3n3c(=O)cc(N4CCOCC4)nc23)cccc1C(F)(F)F [GSK2306394] is ___
0

Fill in: %Inh of COc1cc2ncnc(Nc3cccc(Br)c3)c2cc1OC.Cl [GI230329] is ___
18

Fill in: %Inh of CNc1cc(-c2ccc3c(N)n[nH]c3c2)nc(N)n1 [GSK2224810] is ___
39
